# Tested on: Pseudomonas aeruginosa strain H1001 fliC::luxCDABE
# Test Details: Luminescence-based assay for the non-cleaved (bound) peptides on cellulose membranes
# Assay type: cell-based
# Cond: cellulose-bound peptide, 20 min
Ends that are not written are not given here.
Endpoint Label: Luminescence at the given time in minutes: 20 (RLU)

INSERT INTO measurements (substance, endpoint_result) VALUES
  ('VRIRARRVILVA-NH2 (C-terminus assumed) [Bac006]', 6829),
  ('ILVARVIRRRVA [Bac019]', 7569),
  ('RAIRVRRIVLAV [Bac037]', 6480),
  ('IRARIAVRRVVL [Bac004]', 6547),
  ('VVIRAAIRRVRL [Bac038]', 7158),
  ('VILARRRVRIAV [Bac017]', 7259),
  ('VIALVRARVRRI [Bac049]', 7239),
  ('RRRVIVAVLARI [Bac046]', 5904),
  ('AAVRRRVRLVII [Bac010]', 6719),
  ('VIALRIAVRRVR [Bac045]', 6105),
  ('ILRRVRVRAVAI-NH2 (C-terminus assumed) [Bac022]', 7179),
  ('VRLRIRVAVIRA-NH2 (C-terminus assumed) [Bac034]', 6449),
  ('AVRAIRVLRVIR [Bac015]', 7112),
  ('ARIARRVRILVV [Bac021]', 7247),
  ('ILVIVRRRARAV [Bac042]', 6703),
  ('RVLIARVVRAIR [Bac027]', 6695),
  ('RIVLRRAAVIRV [Bac039]', 7074),
  ('ARRARIRILVVV [Bac032]', 6342),
  ('IAARRLIRVVRV [Bac012]', 7171),
  ('VLARVVARRIRI [Bac040]', 6241),
  ('VIVRLAARRVRI [Bac028]', 6828),
  ('RARRVRVLIAIV [Bac036]', 7062),
  ('RVLIAARVIRRV [Bac047]', 6747),
  ('VIRRRRILAAVV-NH2 (C-terminus assumed) [Bac044]', 7069),
  ('RRRAIVRVVAIL [Bac023]', 7783),
  ('IVRVAVALRRIR [Bac005]', 6844),
  ('VLIRIRRVARAV [Bac008]', 6695),
  ('RLRVAIVAIVRR [Bac041]', 5674),
  ('RRIARVIVAVLR [Bac002]', 6090),
  ('IVVRRRRAALVI [Bac030]', 7325),
  ('LAIVRRARVRIV [Bac031]', 7357);

====

# Tested on: Pseudomonas aeruginosa strain H1001
# Test Details: Assay for the cleaved (free, soluble) peptides from cellulose support, luminescence killing assay
# Assay type: cell-based
# Parameters: key: 1: Peptides showing stronger killing than Bac2A at a 4 to 8-fold higher dilution; Peptides showing stronger killing compared to that of Bac2A at a 4-fold higher dilution; 3: Peptides similar to Bac2A; 4: Peptides similar to Bac2A at the highest concentration but demonstrating weaker killing at a 2-fold dilution; 5: Peptides giving very weak or no killing at a 2-fold dilution; 6: Peptides with weak killing activity at the highest concentration
# Cond: free (cleaved) peptides, killing relative to Bac2A
Ends that are not written are not given here.
Each entry below carries its recorded Activity Class Soluble.
Endpoint Label: Activity Class Soluble

INSERT INTO results (substance, endpoint_label, endpoint_result) VALUES
  ('RAIIRRVLVRVA [Bac024]', 'Activity Class Soluble', 4),
  ('RVLIVIRARRVA-NH2 (C-terminus assumed) [Bac043]', 'Activity Class Soluble', 1),
  ('RAVAVIIRLRRV-NH2 (C-terminus assumed) [Bac014]', 'Activity Class Soluble', 1),
  ('IRARIAVRRVVL [Bac004]', 'Activity Class Soluble', 3),
  ('RRIARVIVAVLR [Bac002]', 'Activity Class Soluble', 3),
  ('RARRVRVLIAIV [Bac036]', 'Activity Class Soluble', 4),
  ('VVRALRRIIARV [Bac048]', 'Activity Class Soluble', 4),
  ('ILRRVRVRAVAI-NH2 (C-terminus assumed) [Bac022]', 'Activity Class Soluble', 6),
  ('AAVRRRVRLVII [Bac010]', 'Activity Class Soluble', 1),
  ('IIRAALRRVRVV [Bac009]', 'Activity Class Soluble', 5),
  ('ARIARRVRILVV [Bac021]', 'Activity Class Soluble', 4),
  ('RRRVIVAVLARI [Bac046]', 'Activity Class Soluble', 3),
  ('IAARRLIRVVRV [Bac012]', 'Activity Class Soluble', 3),
  ('ARAILIRVVRRV [Bac025]', 'Activity Class Soluble', 3);

====

# Tested on: Pseudomonas aeruginosa PAO1 strain H103
# Cond: PAO1
Ends that are not written are not given here.
Endpoint Label: MIC P. aeruginosa With 2 mM Mg (µg/mL)

INSERT INTO assay_data (substance, qualifier_symbol, endpoint_result) VALUES
  ('VIRRRRILAAVV-NH2 (C-terminus assumed) [Bac044]', '>', 250),
  ('VRLRIRVAVIRA-NH2 (C-terminus assumed) [Bac034]', '=', 16),
  ('RAVAVIIRLRRV-NH2 (C-terminus assumed) [Bac014]', '=', 63),
  ('RRAAVVLIVIRR-NH2 (C-terminus assumed) [Bac020]', '=', 8),
  ('RLARIVVIRVAR-NH2 [Bac2A, reference compound]', '=', 73),
  ('ILRRVRVRAVAI-NH2 (C-terminus assumed) [Bac022]', '>', 250);

====

Each entry below carries its recorded Luminescence at the given time in minutes: 240.
# System: Pseudomonas aeruginosa strain H1001 fliC::luxCDABE
# Test Details: Luminescence-based assay for the non-cleaved (bound) peptides on cellulose membranes
# Assay type: cell-based
# Cond: cellulose-bound peptide, 240 min
Ends that are not written are not given here.
Endpoint Label: Luminescence at the given time in minutes: 240 (RLU)

INSERT INTO measurements (substance, target_or_system, unit_spec, endpoint_result) VALUES
  ('IRARIAVRRVVL [Bac004]', 'Pseudomonas aeruginosa strain H1001 fliC::luxCDABE', 'RLU', 2607),
  ('RLRVAIVAIVRR [Bac041]', 'Pseudomonas aeruginosa strain H1001 fliC::luxCDABE', 'RLU', 37),
  ('RRIARVIVAVLR [Bac002]', 'Pseudomonas aeruginosa strain H1001 fliC::luxCDABE', 'RLU', 48),
  ('RAIIRRVLVRVA [Bac024]', 'Pseudomonas aeruginosa strain H1001 fliC::luxCDABE', 'RLU', 1373),
  ('RARRVRVLIAIV [Bac036]', 'Pseudomonas aeruginosa strain H1001 fliC::luxCDABE', 'RLU', 107),
  ('AVRAIRVLRVIR [Bac015]', 'Pseudomonas aeruginosa strain H1001 fliC::luxCDABE', 'RLU', 1320),
  ('VIALVRARVRRI [Bac049]', 'Pseudomonas aeruginosa strain H1001 fliC::luxCDABE', 'RLU', 1794),
  ('LAIVRRARVRIV [Bac031]', 'Pseudomonas aeruginosa strain H1001 fliC::luxCDABE', 'RLU', 3247),
  ('IRVRRLVAAVIR [Bac033]', 'Pseudomonas aeruginosa strain H1001 fliC::luxCDABE', 'RLU', 2962),
  ('IAARRLIRVVRV [Bac012]', 'Pseudomonas aeruginosa strain H1001 fliC::luxCDABE', 'RLU', 5087),
  ('VIRRRRILAAVV-NH2 (C-terminus assumed) [Bac044]', 'Pseudomonas aeruginosa strain H1001 fliC::luxCDABE', 'RLU', 5195),
  ('IARRIVAVRLRV [Bac026]', 'Pseudomonas aeruginosa strain H1001 fliC::luxCDABE', 'RLU', 208),
  ('RVLIAARVIRRV [Bac047]', 'Pseudomonas aeruginosa strain H1001 fliC::luxCDABE', 'RLU', 2615),
  ('RRLVAIVAVRRI [Bac007]', 'Pseudomonas aeruginosa strain H1001 fliC::luxCDABE', 'RLU', 79),
  ('ARIARRVRILVV [Bac021]', 'Pseudomonas aeruginosa strain H1001 fliC::luxCDABE', 'RLU', 128);

====

Each entry below carries its recorded MIC C. albicans.
# Test system: Candida albicans
Ends that are not written are not given here.
Endpoint Label: MIC C. albicans (µg/mL)

INSERT INTO results (substance, endpoint_result) VALUES
  ('GLARIVVIRVAR-NH2 (C-terminus assumed) [Bac206]', 125),
  ('RLARIVVIRV-NH2 (C-terminus assumed) [Bac103]', 23),
  ('RLARIVVIRVA-NH2 (C-terminus assumed) [Bac101]', 63);
